Reference for the values: the supplement of paper PMC5908809

tested on: normal primary NK cells, pool 3 (3 donors) (IL-2 2.5 ng/mL); assay: drug sensitivity score (DSS) (DSS units); higher = more sensitive; extreme values may be limits of the assay; settings: 72 h
ASSAY ENDPOINT: drug sensitivity score
Output: the number by itself.

Reference set, count: 2
{"COMPOUND": "O=C(NC1CCNCC1)c1n[nH]cc1NC(=O)c1c(Cl)cccc1Cl [AT7519] (max concentration tested 10000 nM)", "EXPERIMENTAL RESULT": 16.8}
{"COMPOUND": "N[C@@H]1CCCN(c2c(/C=C3\\SC(=O)NC3=O)cccc2-c2ccccc2)C1 [AZD1208] (max concentration tested 10000 nM)", "EXPERIMENTAL RESULT": 0.17}

--- query ---
Qu. # drug sensitivity score lookup, item CC(C)C(=O)Nc1ccc([N+](=O)[O-])c(C(F)(F)F)c1 [Flutamide] (max concentration tested 10000 nM)
Ans. 0

----------
Measured percent inhibition of viability values are reported for all entries that follow.
tested on: normal primary NK cells, pool 3 (3 donors) (IL-2 2.5 ng/mL); assay: percent inhibition of viability; higher = more inhibition; conditions: 72 h; 1000 nM
The answer is to be given in %; state only the numeric part.

Completed entries (count: 5):
{"COMPOUND": "COc1ccc(-c2ccc3c(N4CCOC[C@@H]4C)nc(N4CCOC[C@@H]4C)nc3n2)cc1CO [AZD8055] (max concentration tested 10000 nM)", "UNIT SYMBOL": "%", "EXPERIMENTAL RESULT": 14.1}
{"COMPOUND": "O=C(NOC[C@H](O)CO)c1ccc(F)c(F)c1Nc1ccc(I)cc1F (max concentration tested 1000 nM)", "UNIT SYMBOL": "%", "EXPERIMENTAL RESULT": -4.17}
{"COMPOUND": "CC(=O)Nc1ccc(C(=O)Nc2ccccc2N)cc1 [Tacedinaline] (max concentration tested 1000 nM)", "UNIT SYMBOL": "%", "EXPERIMENTAL RESULT": -0.28}
{"COMPOUND": "CNCc1ccc(-c2[nH]c3cc(F)cc4c3c2CCNC4=O)cc1 [Rucaparib] (max concentration tested 10000 nM)", "UNIT SYMBOL": "%", "EXPERIMENTAL RESULT": -0.98}
{"COMPOUND": "Cc1cc(Nc2cc(N3CCN(C)CC3)nc(/C=C/c3ccccc3)n2)n[nH]1 [ENMD-2076] (max concentration tested 10000 nM)", "UNIT SYMBOL": "%", "EXPERIMENTAL RESULT": 14.7}

Qu. Value wanted: percent inhibition of viability (normal primary NK cells, pool 3 (3 donors) (IL-2 2.5 ng/mL)) of entry Cc1cc(OCc2nnc(SC3CCCC3)n2-c2cccnc2)ccc1-c1ccc(S(C)(=O)=O)cc1 [NMS-873] (max concentration tested 10000 nM)
Ans. 27

Qu. # query: percent inhibition of viability | item CN(C)Cc1ccc(S(=O)(=O)n2ccc(/C=C/C(=O)NO)c2)cc1 [Resminostat] (max concentration tested 10000 nM) | system: normal primary NK cells, pool 3 (3 donors) (IL-2 2.5 ng/mL)
Ans. 20.1

----------
system: KHYG-1 (IL-2 2.5 ng/mL); test: percent inhibition of viability; higher = more inhibition; conditions: 72 h; 10000 nM
percent inhibition of viability for assorted molecules
Give the number; % is assumed, so skip it.

Some solved entries appear below for comparison.
{"MOLECULE": "Cn1cncc1[C@@](N)(c1ccc(Cl)cc1)c1ccc2c(c1)c(-c1cccc(Cl)c1)cc(=O)n2C [Tipifarnib] (max concentration tested 10000 nM)", "EXPERIMENTAL RESULT": 107}
{"MOLECULE": "COc1ccc(S(=O)(=O)Nc2cccnc2Nc2ccc(O)cc2)cc1 [ABT-751] (max concentration tested 10000 nM)", "EXPERIMENTAL RESULT": 104}
{"MOLECULE": "Cc1cc(Nc2cc(N3CCN(C)CC3)nc(Sc3ccc(NC(=O)C4CC4)cc3)n2)n[nH]1 [Tozasertib] (max concentration tested 10000 nM)", "EXPERIMENTAL RESULT": 85.3}
{"MOLECULE": "Cc1cc(Nc2cc(N3CCN(C)CC3)nc(/C=C/c3ccccc3)n2)n[nH]1 [ENMD-2076] (max concentration tested 10000 nM)", "EXPERIMENTAL RESULT": 103}
{"MOLECULE": "CN1CCN(CCOc2cc(OC3CCOCC3)c3c(Nc4c(Cl)ccc5c4OCO5)ncnc3c2)CC1 [Saracatinib] (max concentration tested 10000 nM)", "EXPERIMENTAL RESULT": 77.8}

Attention now turns to another entry.
Qu. Param item = COc1cc(Nc2c(C#N)cnc3cc(OCCCN4CCN(C)CC4)c(OC)cc23)c(Cl)cc1Cl [Bosutinib] (max concentration tested 10000 nM) ; retrieve measured percent inhibition of viability.
Ans. 96.2

----------
Consider the following molecules and their measured percent inhibition of viability readings.
test system: normal primary NK cells, pool 2 (3 donors) (IL-2 2.5 ng/mL); experiment: percent inhibition of viability; higher = more inhibition; settings: 72 h; 10 nM
Just the number in %, nothing appended.

{"MOLECULE": "COc1ccc(-c2ccc3c(N4CCOC[C@@H]4C)nc(N4CCOC[C@@H]4C)nc3n2)cc1CO [AZD8055] (max concentration tested 10000 nM)", "UNIT SYMBOL": "%", "percent inhibition of viability": 5.36}
{"MOLECULE": "CNC(=O)c1ccc(C)c(-n2c(C)cc(OCc3ccc(F)cc3F)c(Br)c2=O)c1 (max concentration tested 1000 nM)", "UNIT SYMBOL": "%", "percent inhibition of viability": 0.85}
{"MOLECULE": "Cc1ccc(NC(=O)c2ccc(CN3CCN(C)CC3)cc2)cc1Nc1nccc(-c2cccnc2)n1 [Imatinib] (max concentration tested 10000 nM)", "UNIT SYMBOL": "%", "percent inhibition of viability": -13}

Continue with the molecule presented below.
Qu. Value lookup for percent inhibition of viability; key = CCNC(=O)c1noc(-c2cc(C(C)C)c(O)cc2O)c1-c1ccc(CN2CCOCC2)cc1 [Luminespib] (max concentration tested 1000 nM)
Ans. 74.2

----------
tested on: NKL (IL-2 2.5 ng/mL); test: drug sensitivity score (DSS) (DSS units); higher = more sensitive; extreme values may be limits of the assay; settings: 72 h
ASSAY ENDPOINT: drug sensitivity score
Please give only the number in your answer, with no unit.

{"MOLECULE": "COc1cc(Nc2c(C#N)cnc3cc(OCCCN4CCN(C)CC4)c(OC)cc23)c(Cl)cc1Cl [Bosutinib] (max concentration tested 10000 nM)", "SYSTEM NAME": "NKL (IL-2 2.5 ng/mL)", "drug sensitivity score": 5.43}
{"MOLECULE": "CON(C)C(=O)N1N=C(c2cc(F)ccc2F)S[C@@]1(CCCN)c1ccccc1 [ARRY-520] (max concentration tested 1000 nM)", "SYSTEM NAME": "NKL (IL-2 2.5 ng/mL)", "drug sensitivity score": 26}
{"MOLECULE": "COc1cc2ncnc(Oc3cccc(NC(=O)Nc4cc(C(C)(C)C(F)(F)F)on4)c3)c2cc1OC (max concentration tested 10000 nM)", "SYSTEM NAME": "NKL (IL-2 2.5 ng/mL)", "drug sensitivity score": 9.3}
{"MOLECULE": "CO[C@@]12[C@H](COC(N)=O)C3=C(C(=O)C(C)=C(N)C3=O)N1C[C@@H]1N[C@@H]12 [Mitomycin C] (max concentration tested 10000 nM)", "SYSTEM NAME": "NKL (IL-2 2.5 ng/mL)", "drug sensitivity score": 21.9}
{"MOLECULE": "C[C@]12C=CC(=O)C=C1CC[C@@H]1[C@@H]2C(=O)C[C@@]2(C)[C@H]1CC[C@]2(O)C(=O)CO [Prednisone] (max concentration tested 10000 nM)", "SYSTEM NAME": "NKL (IL-2 2.5 ng/mL)", "drug sensitivity score": 0.06}

Qu. Quick check: drug sensitivity score of O=C(NOCC1CC1)c1ccc(F)c(F)c1Nc1ccc(I)cc1Cl (max concentration tested 10000 nM) ?
Ans. 16.6

----------
Measured percent inhibition of viability of individual entries
test system: NK-YS (IL-2 2.5 ng/mL); test: percent inhibition of viability; higher = more inhibition; conditions: 72 h; 1000 nM
Unit % implied. Number only.

Solved entries:
{"COMPOUND": "Cc1cn(-c2cc(NC(=O)c3ccc(C)c(Nc4nccc(-c5cccnc5)n4)c3)cc(C(F)(F)F)c2)cn1 [Nilotinib] (max concentration tested 10000 nM)", "EXPERIMENTAL RESULT": 11.3}
{"COMPOUND": "C[C@@H]1COC(Nc2ccc3ncnc(Nc4ccc(OCc5nccs5)c(Cl)c4)c3c2)=N1 [Varlitinib] (max concentration tested 10000 nM)", "EXPERIMENTAL RESULT": 4.33}
{"COMPOUND": "O=C(NC1CCNCC1)c1n[nH]cc1NC(=O)c1c(Cl)cccc1Cl [AT7519] (max concentration tested 10000 nM)", "EXPERIMENTAL RESULT": 96.6}

Qu. So what does the record say about percent inhibition of viability for COc1ccc(COc2cc3oc(=O)c4cc(C(C)O)ccc4c3cc2OC)cc1 (stereo not given) [Palomid-529] (max concentration tested 10000 nM) ?
Ans. 9.61

Qu. # get_value(readout='percent inhibition of viability', item= CC(C)N(CCCNC(=O)Nc1ccc(C(C)(C)C)cc1)C[C@H]1O[C@@H](n2cc(Br)c3c(N)ncnc32)[C@H](O)[C@@H]1O [SGC0946] (max concentration tested 10000 nM) )
Ans. -0.01

Qu. Dear colleague, I am looking for the recorded percent inhibition of viability of the following compound: CC[C@H](CO)Nc1nc(NCc2ccccc2)c2ncn(C(C)C)c2n1 [Seliciclib] (max concentration tested 10000 nM)
Ans. 7.11

Qu. Would you mind telling me what percent inhibition of viability value was observed for C/C(=C\c1csc(C)n1)[C@@H]1C[C@@H]2O[C@]2(C)CCC[C@H](C)[C@H](O)[C@@H](C)C(=O)C(C)(C)[C@@H](O)CC(=O)O1 [Patupilone] (max concentration tested 1000 nM) ?
Ans. 69.9

Qu. Give the measured percent inhibition of viability of Cc1nc(Nc2n[nH]c3c2CN(C(=O)N[C@H](CN(C)C)c2ccccc2)C3(C)C)c2sccc2n1 (max concentration tested 10000 nM) .
Ans. 57.7

Qu. Dear colleague, I am looking for the recorded percent inhibition of viability of the following compound: COc1ccc(-c2ccc3c(N4CCOC[C@@H]4C)nc(N4CCOC[C@@H]4C)nc3n2)cc1CO [AZD8055] (max concentration tested 10000 nM)
Ans. 66.8

Qu. GET /values?readout=percent inhibition of viability&item= CC[C@@H]1C(=O)N(C)c2cnc(Nc3ccc(C(=O)N[C@H]4CC[C@H](N5CCN(CC6CC6)CC5)CC4)cc3OC)nc2N1C(C)C [Volasertib] (max concentration tested 1000 nM)
Ans. 51
